Values were extracted from patent US11576922B2.

system-tested: CD73 (Homo sapiens)
Sequence (P21589 27-549): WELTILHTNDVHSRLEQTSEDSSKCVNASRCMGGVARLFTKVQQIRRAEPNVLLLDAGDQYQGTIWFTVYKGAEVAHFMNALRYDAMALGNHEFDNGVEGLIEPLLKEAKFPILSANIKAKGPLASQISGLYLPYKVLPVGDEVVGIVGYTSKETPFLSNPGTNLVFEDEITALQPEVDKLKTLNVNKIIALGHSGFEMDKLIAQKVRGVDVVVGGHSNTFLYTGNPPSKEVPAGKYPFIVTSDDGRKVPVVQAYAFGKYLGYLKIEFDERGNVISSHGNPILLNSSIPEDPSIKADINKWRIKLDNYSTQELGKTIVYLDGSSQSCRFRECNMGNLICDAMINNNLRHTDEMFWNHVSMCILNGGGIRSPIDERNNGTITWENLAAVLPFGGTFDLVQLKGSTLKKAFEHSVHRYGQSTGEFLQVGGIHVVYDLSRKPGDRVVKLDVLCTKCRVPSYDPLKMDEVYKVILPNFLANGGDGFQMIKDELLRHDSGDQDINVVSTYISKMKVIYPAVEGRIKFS
experiment-notes: Example A1: Biochemical Assay (CD73 inhibition, Malachite Green detection of AMP hydrolysis)
particulars: CD73 0.3208 nM, AMP 15 μM, Tris-HCl pH 7.4, Malachite Green, absorbance 620 nm; read-out: Biochemical IC50
Below, each entry is listed with its recorded IC50.

{"columns": ["compound", "IC50"],
 "data": [
  ["C[C@@H](c1ccccc1Cl)N(C)c1nc(Cl)nc2c1nnn2[C@@H]1O[C@H](COP(=O)(O)CP(=O)(O)O)[C@@H](O)[C@H]1O [Example 12]", "< 100 nM"],
  ["CN(Cc1ccccc1)c1nc(Cl)nc2c1nnn2[C@@H]1O[C@H](COP(=O)(O)CP(=O)(O)O)[C@@H](O)[C@H]1O [Example 15]", "< 100 nM"],
  ["Cc1nn([C@@H]2O[C@H](COP(=O)(O)CP(=O)(O)O)[C@@H](O)[C@H]2O)c2nc(Cl)nc(N(C)Cc3ccccc3)c12 [Example 43]", "< 100 nM"],
  ["CN(c1nc(Cl)nc2c1cnn2[C@@H]1O[C@H](COP(=O)(O)CP(=O)(O)O)[C@@H](O)[C@H]1O)[C@@H]1CCc2ccccc21 [Example 38]", "< 100 nM"],
  ["O=P(O)(O)CP(=O)(O)OC[C@H]1O[C@@H](n2nnc3c(NC[C@H]4CCOC4)nc(Cl)nc32)[C@H](O)[C@@H]1O [Example 3]", "100 to 1000 nM"],
  ["C[C@H](Nc1nc(Cl)nc2c1cnn2[C@@H]1O[C@H](COP(=O)(O)CP(=O)(O)O)[C@@H](O)[C@H]1O)c1ccccc1Cl [Example 46]", "> 1000 nM"]
]}
